Tested on: Staphylococcus aureus subsp. aureus COL
Assay: Inhibition of methicillin-resistant Staphylococcus aureus COL TarO assessed as concentration of compound for potentiation of action of imipenem-mediated bacterial growth inhibition by 95 %
Assignment: determine reported MITC95 for the given molecules.
Answers are plain numbers, in µM.

CCN(C(=O)CCn1c2ccc(F)cc2nc1[C@H]1CC[C@H](CC)CC1)C1CCCCC1; 0.004
CCN(C(=O)CCn1c(-c2ccc(-n3ccnn3)cc2)nc2ccccc21)C1CCCCC1; 19
CCN(C(=O)CCn1c2c(F)cccc2nc1[C@H]1CC[C@H](CC)CC1)C1CCCCC1; 0.8

Now for the molecule whose MITC95 we want.
What value of measured MITC95 is listed for "CCN(C(=O)CCn1c2cc(-c3ccc(O)cc3)ccc2nc1[C@H]1CC[C@H](CC)CC1)C1CCCCC1" ?
0.3
